# System: UACC-257 melanoma
# Protocol: NCI-60 one-dose screen, 48 h (100 = growth as untreated, 0 = no growth, -100 = all killed)
# Test conditions: 10 µM unless noted
# Protocol: Cells are grown in 96 well plates and exposed to the test compound for 48 hours. Compounds are tested at a single concentration, which is 10^-5 M for most compounds. The reported endpoint is percent growth (GI% or GIPRCNT), where numbers from 0 - 100% represent growth inhibition, and numbers from -100% - 0 represent cell death. For example, a value of 40 represents 60% growth inhibition. A value of 0 means no net growth occurred over the course of the experiment. […]
Compounds without any hit were thinned out: in the full panel of roughly 83,000, 20% have a hit.
Condition met if growth is below 80%. Condition not met if not; exact matches included in Condition not met.

>  <Molecule>
OCc1cccc(-c2ccc3ncc(-c4nc(NC5CC5)ncc4F)n3c2)c1

>  <Answer label>
Condition met

$$$$
>  <Molecule>
CC(=O)c1cc(O)c2ccccc2c1O

>  <Answer label>
Condition not met

$$$$
>  <Molecule>
CC(C)OC(=O)c1ccc2[nH]c(O)c(C(=Nc3ccc(N(C)C(=O)CN4CCN(C)CC4)cc3)c3ccccc3)c2c1

>  <Answer label>
Condition met

$$$$
>  <Molecule>
COc1ccc(-c2nnc(-c3ccc4c(c3)nc(-c3ccncc3)n4C3CCCCC3)o2)cc1

>  <Answer label>
Condition met

$$$$
>  <Molecule>
COc1cc(CNC(=O)CCCC/C=C/C(C)C)ccc1OCc1nnc(Nc2ccc([N+](=O)[O-])cc2)o1

>  <Answer label>
Condition met

$$$$
>  <Molecule>
O=C(CN1C(=O)CCC1=O)Nc1ncc(Cc2ccc(F)cc2)s1

>  <Answer label>
Condition not met

$$$$
>  <Molecule>
N#Cc1nc(-c2ccccc2)oc1S(=O)(=O)N1CCOCC1

>  <Answer label>
Condition not met

$$$$
>  <Molecule>
COc1ccc2c3c([nH]c2c1)C(=O)c1nc(C)ccc1C3=O

>  <Answer label>
Condition met

$$$$
>  <Molecule>
CCOP(=O)(OCC)c1nc(-c2ccccc2)oc1NCc1cccnc1

>  <Answer label>
Condition not met

$$$$
>  <Molecule>
C=C(C)[C@@H]1CC[C@]2(C(=O)NCC#CCN3CCN(C)CC3)CC[C@]3(C)[C@H](CC[C@@H]4[C@@](C)(CCC#N)[C@H](C(=C)C)CC[C@]43C)[C@@H]12

>  <Answer label>
Condition met

$$$$
>  <Molecule>
COc1ccc2cc(C(=O)c3coc4ccc(O)cc34)ccc2c1

>  <Answer label>
Condition not met

$$$$
>  <Molecule>
O=C1/C(=C/c2ccc(-c3ccc(Br)cc3)o2)SC(=S)N1CCc1ccc(O)cc1

>  <Answer label>
Condition met

$$$$
>  <Molecule>
Cn1cc(-c2nc(-c3c[nH]c4ccncc34)cs2)c2ccccc21

>  <Answer label>
Condition not met

$$$$
>  <Molecule>
Cc1ccc(-c2nc3nc(-c4ccccc4)nc(N4CCNCC4)c3o2)cc1

>  <Answer label>
Condition met

$$$$
>  <Molecule>
Nc1c(C(=O)Nc2ccncc2)sc2nc3c(cc12)CCCCCC3

>  <Answer label>
Condition not met

$$$$
>  <Molecule>
O=[N+]([O-])C1C(c2ccccc2)C12c1ccccc1-c1ccccc12 (stereo not drawn)

>  <Answer label>
Condition met

$$$$
>  <Molecule>
CC[C@@H](C(=O)[C@@H](C)[C@@H](O)[C@H](C)[C@@H]1O[C@@H]([C@@H](CC)C(=O)NCCc2ccc(F)cc2)CC[C@@H]1C)C1O[C@]2(C=CC(=O)[C@]3(CC[C@@](C)([C@H]4CC[C@](O)(CC)[C@H](C)O4)O3)O2)[C@H](C)C[C@@H]1C (stereo partly drawn)

>  <Answer label>
Condition met

$$$$
>  <Molecule>
C[C@H](NC(=O)[C@@H](C)N)[C@H](Oc1ccc2c(cnn2-c2ccc(F)cc2)c1)c1ccc2c(c1)OCCO2

>  <Answer label>
Condition met

$$$$

Each recorded value in this set is attributed to PubChem BioAssay (NCI).
